Biological target: T1, mouse tissue factor pathway inhibitor (TFPI) (mouse, UniProt O54819 29-289, limits assumed)
T1 construct: bought; also called mTFPI; murine TFPI
T1 sequence (looked up): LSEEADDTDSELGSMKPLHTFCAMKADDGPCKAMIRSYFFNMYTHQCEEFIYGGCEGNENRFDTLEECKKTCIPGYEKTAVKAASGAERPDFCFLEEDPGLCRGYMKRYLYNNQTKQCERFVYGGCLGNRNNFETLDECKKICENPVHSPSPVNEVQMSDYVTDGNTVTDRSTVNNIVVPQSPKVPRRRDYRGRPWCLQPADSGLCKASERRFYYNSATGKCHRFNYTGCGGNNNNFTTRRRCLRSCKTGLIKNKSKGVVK
Assay: SPR, TFPI immobilized
parameter: KD fold improvement (fold)
# unit: fold | format: bare number

binder	result unit	KD fold improvement
2A8-127 (HC S35D+K99L/LC Y48F+N51V+G56D+V96W) (Fab, V domains shown) VH: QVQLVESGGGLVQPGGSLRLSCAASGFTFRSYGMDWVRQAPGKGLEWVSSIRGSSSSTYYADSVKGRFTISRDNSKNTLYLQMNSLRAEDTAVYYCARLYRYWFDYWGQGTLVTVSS VL: DIELTQPPSVSVAPGQTARISCSGDNLRNYYAHWYQQKPGQAPVVVIFYDVNRPSDIPERFSGSNSGNTATLTISGTQAEDEADYYCQSWDDGVPWFGGGTKLTVLG	fold	18.5

Query :: Would you mind telling me what KD fold improvement value was observed for 2A8 wild-type Fab (Fab, V domains shown, Fab with c-myc (or HA, or none) and 6xHis tag at the C-terminus of the heavy chain; also called 2A8wt; 2A8 wt) VH: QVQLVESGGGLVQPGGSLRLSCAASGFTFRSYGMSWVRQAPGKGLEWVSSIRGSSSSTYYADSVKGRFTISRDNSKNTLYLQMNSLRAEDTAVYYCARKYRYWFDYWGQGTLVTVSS VL: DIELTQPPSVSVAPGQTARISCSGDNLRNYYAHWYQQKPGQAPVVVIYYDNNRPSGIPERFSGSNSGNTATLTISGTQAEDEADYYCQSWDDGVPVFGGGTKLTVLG ?
Result :: 1
